Biological target: T1, soluble PD-L1 fused to a His tag (shPD-L1) (UniProt Q9NZQ7 19-238, limits assumed)
T1 construct: the species of shPD-L1 is not written out; also called shPD-L1-his; not shown: His tag
T1 sequence (Q9NZQ7 19-238 limits assumed): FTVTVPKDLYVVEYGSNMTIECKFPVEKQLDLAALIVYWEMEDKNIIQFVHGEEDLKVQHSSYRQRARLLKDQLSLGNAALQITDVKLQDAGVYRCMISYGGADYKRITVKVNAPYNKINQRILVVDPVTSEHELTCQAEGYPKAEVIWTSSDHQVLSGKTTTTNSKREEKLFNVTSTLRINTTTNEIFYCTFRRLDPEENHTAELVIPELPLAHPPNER
Experiment: ELISA on plate-coated shPD-L1-his, anti-human kappa-HRP detection, RLU

- binder: "hPD-L1 MAB-2A (Fab) (Fab, V domains shown, Fab fragment) VH: EVQLVESGGGLVQPGGSLRLSCAASGFTFSGYTMSWVRQAPGKGLEWVAYISIKGGTTYYPDTVKGRFTISRDNAKNTLYLQMNSLKTEDTAVYYCARAGLPYYFDYWGQGTLVTVSS VL: DIQMTQSPSSLSASVGDRVTITCKASQHVNTAVAWYQQKPGKAPKLLIYWASTRHTGVPSRFSGSGSGTDFTLTISSLQPEDFATYYCQQHYNTPLTFGQGTKVEIK"
  binding result: "binds"
- binder: "hPD-L1 MAB-2D (Fab) (Fab, V domains shown, Fab fragment) VH: EVQLVESGGGLVQPGGSLRLSCAASGFTFSSYTMSWVRQAPGKGLEWVAYISIGGGTTYYPDTVKGRFTISRDNAKNTLYLQMNSLKTEDTAVYYCARQGLPYYGDYWGQGTLVTVSS VL: DIQMTQSPSSLSASVGDRVTITCKASQLVNTAVAWYQQKPGKAPKLLIYWAETRHTGVPSRFSGSGSGTDFTLTISSLQPEDFATYYCQQHYNTPLTFGQGTKVEIK"
  binding result: "binds"
